biological target: rPR3 (Homo sapiens); construct: TEV cleavage site (C); 6x His-tag (C); made in house; host or cells: Spodoptera frugiperda Sf9 (baculovirus), secreted; assay: SPR binding assay on biotinylated rPR3; conditions: 1:1 binding kinetic model; average and SD of triplicates; read-out: KD
pKd: −log10 of the molar value.

| compound | pKd |
| --- | --- |
| CC1=C(C#N)[C@@H](c2ccc(C#N)cc2S(C)(=O)=O)N(C)C(=O)N1c1cccc(C(F)(F)F)c1 [BAY-85-8501] | 7.85 |

###

Molecular target: rPR3 (Homo sapiens, UniProt P24158)
Construct: TEV cleavage site (C); 6x His-tag (C); made in house; host or cells: Spodoptera frugiperda Sf9 (baculovirus), secreted
Sequence (P24158 28-248 limits assumed): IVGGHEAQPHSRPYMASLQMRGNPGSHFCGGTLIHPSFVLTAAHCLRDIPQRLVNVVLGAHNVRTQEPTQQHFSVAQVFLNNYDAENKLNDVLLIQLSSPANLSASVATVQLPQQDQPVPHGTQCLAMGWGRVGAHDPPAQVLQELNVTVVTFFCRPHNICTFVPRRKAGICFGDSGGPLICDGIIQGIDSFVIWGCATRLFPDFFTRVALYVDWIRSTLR
Test: Fluorescence-based enzymatic activity assay with rPR3 (FRET peptide Abz-VADnVADYQ-EDDnp)
Type: biochemical
Conditions: mean ± SD (n = 3); read-out: IC50 rPR3
property-label: IC50 (nM)

| substance | recorded-value |
| --- | --- |
| α1-antitrypsin: endogenous serine protease inhibitor, also denoted SERPIN; purchased from Sigma-Aldrich | 14 |

###

Molecular target: rPR3 (Homo sapiens)
Construct: TEV cleavage site (C); 6x His-tag (C); made in house; host or cells: Spodoptera frugiperda Sf9 (baculovirus), secreted
Sequence (P24158 28-248 limits assumed): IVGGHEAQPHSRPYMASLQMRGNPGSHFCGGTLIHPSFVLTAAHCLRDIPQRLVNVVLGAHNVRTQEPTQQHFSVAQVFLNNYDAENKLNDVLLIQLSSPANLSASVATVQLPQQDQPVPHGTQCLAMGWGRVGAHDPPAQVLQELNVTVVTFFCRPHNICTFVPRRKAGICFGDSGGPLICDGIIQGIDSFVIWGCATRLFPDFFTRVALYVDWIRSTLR
Experiment: SPR binding assay on biotinylated rPR3
Conditions: average of Rep1-Rep3; read-out: KD (M), kinetics 1:1, Average

| compound | measurement-unit | Kd |
| --- | --- | --- |
| CC1=C(C#N)[C@@H](c2ccc(C#N)cc2S(C)(=O)=O)N(C)C(=O)N1c1cccc(C(F)(F)F)c1 [BAY-85-8501] | M | 1.37e-08 |

###

molecular target: rPR3 (Homo sapiens); construct: TEV cleavage site (C); 6x His-tag (C); made in house; host or cells: Spodoptera frugiperda Sf9 (baculovirus), secreted; assay: Fluorescence-based enzymatic activity assay with rPR3 (FRET peptide Abz-VADnVADYQ-EDDnp); assay type: biochemical; conditions: mean ± SD (n = 3); read-out: IC50 rPR3
We begin with a simple list: items and their reported IC50.
property-label: IC50 (nM)

| smiles-structure | system-under-test | recorded-value |
| --- | --- | --- |
| CC(C)(C)C(=O)Oc1ccc(S(=O)(=O)Nc2ccccc2C(=O)NCC(=O)O)cc1 | rPR3 (Homo sapiens) | 32 |
| CC1=C(C#N)[C@@H](c2ccc(C#N)cc2S(C)(=O)=O)N(C)C(=O)N1c1cccc(C(F)(F)F)c1 | rPR3 (Homo sapiens) | 59 |
